These measurements were taken from the RNAGym collection of RNA variant scans (doi:10.7554/elife.80360).

B1: Twister Ribozyme (parent)
chain: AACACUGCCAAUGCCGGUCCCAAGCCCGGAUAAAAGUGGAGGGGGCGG

Variants of: B1
run description: self-cleavage, relative activity (ratio to wild type); higher = more cleavage; co-transcriptional
Each entry gets class 0 if its self-cleavage stays under 0.1, and class 1 if its self-cleavage is 0.1 or above.

Consider the worked cases shown below.
>  <sequence input>
AACACUGCCAAUGCCGGUCCCAAGCCCGCAUAAAAGUGGAGGGGGCCG [G29C G47C]

>  <discrete label>
class 1

$$$$
>  <sequence input>
AACACUGCCAAUGCUGGUCCCAAGCCCGGAUAAAAGUGGAGGGAGCGG [C15U G44A]

>  <discrete label>
class 1

$$$$
>  <sequence input>
AACACUGCCAAUGCCCGUCCCAAGCCCGGAAAAAAGUGGAGGGGGCGG [G16C U31A]

>  <discrete label>
class 1

$$$$
>  <sequence input>
UACGCUGCCAAUGCCGGUCCCAAGCCCGGAUAAAAGUGGAGGGGGCGG [A1U A4G]

>  <discrete label>
class 0

$$$$

State whether the measured self-cleavage reaches 0.1, counting equality as reaching it, for AACACUGCCAAUGCCGGUCCCAAGCCCGGAUAAGAGUGGAGGGGGCGA [A34G G48A]
class 1
